Origin of values: ChEMBL document CHEMBL1155350

TEST_DETAILS: Cytotoxicity against mouse J774 macrophage assessed as cell viability at 100 ug/mL after 48 hrs by MTT assay
Format: cell-based
ASSAY_CONDITIONS: J774 macrophage cells, read-out: Activity
ASSAY_READOUT: viability at 48 h, 100 ug/mL (%)
State the answer as a number, implicitly in %.

Here's what some known entries look like.
1) NCCCCCCCN = 100
2) NCCN = 100
3) NCCCCCN = 100
4) NCCCCN = 100
5) NCCCCCCCCCCCCN = 100
6) NCCCCCCN = 100
7) NCCCCCCCCCN = 100
8) NCCCCCCCCN = 95

# input Identify viability at 48 h, 100 ug/mL associated with the molecule "NCCCCCCCCCCCN"
# output 100

# input Identify viability at 48 h, 100 ug/mL associated with the molecule "NCCCCCCCCCCN"
# output 94

# input Given the molecule "NCCCN" , write its reported viability at 48 h, 100 ug/mL.
# output 100

# input Annotate the molecule "CC[C@@H](CO)NCCN[C@@H](CC)CO" with its measured viability at 48 h, 100 ug/mL.
# output 82

---

viability at 48 h, 1 ug/mL by entry:
TEST_DETAILS: Cytotoxicity against Mycobacterium bovis Bacillus Calmette-Guerin infected mouse J774 macrophage assessed as cell viability at 1 ug/mL after 48 hrs by MTT assay
Type: cell-based
ASSAY_CONDITIONS: J774 macrophage cells infected with Mycobacterium bovis BCG, read-out: Activity
Quote the value and follow it with the unit of measurement.

Solved entries (count: 4):
1) NCCCCCCCCN [DIAMINOOCTANE] = 68%
2) NCCCCCN = 100%
3) NCCCCCCCCCCCCN = 56%
4) NCCCCCCCN = 79%

# input Specify measured viability at 48 h, 1 ug/mL for NCCCCN [PUTRESCINE] .
# output 100%

# input Give reported viability at 48 h, 1 ug/mL value for NCCN [ETHYLENEDIAMINE]
# output 35%

# input Name the recorded viability at 48 h, 1 ug/mL of the item "NCCCCCCCCCCN" in your answer.
# output 56%

# input Please report the measured viability at 48 h, 1 ug/mL for "NCCCCCCCCCN"
# output 100%

# input Tell us which viability at 48 h, 1 ug/mL value is on record for "NCCCCCCCCCCCN"
# output 58%

# input Entry "NCCCN" needs its viability at 48 h, 1 ug/mL filled in; supply it.
# output 100%

# input Return viability at 48 h, 1 ug/mL (reported value) for this molecule: CC[C@@H](CO)NCCN[C@@H](CC)CO [ETHAMBUTOL]
# output 92%

# input Return viability at 48 h, 1 ug/mL for the following molecule: "NCCCCCCN"
# output 98%

---

TEST_DETAILS: Cytotoxicity against Mycobacterium bovis Bacillus Calmette-Guerin infected mouse J774 macrophage assessed as cell viability at 10 ug/mL after 48 hrs by MTT assay
Type: cell-based
ASSAY_CONDITIONS: J774 macrophage cells infected with Mycobacterium bovis BCG, read-out: Activity
Simple rule here: viability at 48 h, 10 ug/mL less than 90% is T, otherwise F.

Consider the following illustrative entries.
1. NCCCCCCCCCN = F
2. NCCCCCCCCN [DIAMINOOCTANE] = T
3. NCCCCCCCCCCCN = T
4. NCCCCCCCCCCN = T
5. NCCCCCCCN = T
6. NCCCN = F
7. NCCCCCCCCCCCCN = T
8. NCCCCCN = F

Now consider the entry below.
# input Item NCCN [ETHYLENEDIAMINE] : viability at 48 h, 10 ug/mL beneath 90%, strictly?
# output T

---

Recorded viability at 48 h, 10 ug/mL by entry
TEST_DETAILS: Cytotoxicity against Mycobacterium bovis Bacillus Calmette-Guerin infected mouse J774 macrophage assessed as cell viability at 10 ug/mL after 48 hrs by MTT assay
Type: cell-based
ASSAY_CONDITIONS: J774 macrophage cells infected with Mycobacterium bovis BCG, read-out: Activity
State the value with its unit after it.

1. NCCCCCCN = 92%
2. NCCCCN [PUTRESCINE] = 90%

--- query ---
# input Supply recorded viability at 48 h, 10 ug/mL for CC[C@@H](CO)NCCN[C@@H](CC)CO [ETHAMBUTOL] here.
# output 88%
